The origin of these recorded values is the RNAGym collection of RNA variant scans (doi:10.7554/elife.90254).

B1: OR4K15 (parent)
chain: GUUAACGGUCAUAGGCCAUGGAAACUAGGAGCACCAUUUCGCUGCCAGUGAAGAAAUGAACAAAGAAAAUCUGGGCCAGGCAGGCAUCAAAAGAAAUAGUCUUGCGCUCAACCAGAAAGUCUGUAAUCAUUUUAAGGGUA

- Variants of: B1
- protocol-text: self-cleavage, relative activity (ratio to wild type); higher = more cleavage; in vitro, sequencing; the parent is a self-cleaving ribozyme
Answer each item with its documented self-cleavage.
Answers are plain numbers.

Sample records with self-cleavage:
[
  {
    "mutant-code": "A24U A135U",
    "self-cleavage": 0.83
  },
  {
    "mutant-code": "A94U U124C",
    "self-cleavage": 1.66
  },
  {
    "mutant-code": "G41A U130C",
    "self-cleavage": 0.99
  },
  {
    "mutant-code": "A66G A134C",
    "self-cleavage": 1.71
  },
  {
    "mutant-code": "U49C A94G",
    "self-cleavage": 1.44
  }
]

# next variant below
// query Report self-cleavage for A51G U127A
// result 2.09
